system: PHF (paired helical filaments) isolated from the brain of an Alzheimer's disease patient (Homo sapiens, UniProt P10636)
Sequence (P10636 623-708 limits assumed): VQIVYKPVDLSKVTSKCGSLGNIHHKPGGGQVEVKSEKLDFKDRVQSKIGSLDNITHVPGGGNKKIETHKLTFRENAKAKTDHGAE
test: Competitive binding assay: displacement of primulin fluorescence from PHFs
measurement.parameters: concentration that reduces the signal of 1 μM primulin to 50% of control; relative affinity; read-out: P50
Overview of recorded IC50 for various compounds

Cc1ccc2nc(-c3ccc(NC(=O)c4ccccc4)cc3)sc2c1 [ABAA-10]: ~1200 nM

What does the data say about its IC50? Entry: COCCOCCOCCOc1cc(NC(=O)c2ccc(F)c([N+](=O)[O-])c2)ccc1-c1nc2ccccc2s1 [AUB-02]
> 1000 nM

What does the data say about its IC50? Entry: CN(C)c1ccc(C(=O)Nc2ccc(-c3cn4ccccc4n3)cc2)cc1 [AIPN-01]
> 1000 nM

Source: patent US8895313B2
